Source: patent US7405063B2

Tested on: C. tropicalis strain H5343
protocol summary: Toxicity tests of substrates (growth by absorbance at 600 nm, streak plates)
Type: cell-based
measurement parameters: substrate concentration 0.0313%, 48 h, 30° C., dilution in YPD 1:100
quantity kind: ABS 600.0 nm
Numbers only.

Examples with their reported ABS 600.0 nm follow.
compound | ABS 600.0 nm
CCCCC(CC)C(=O)O (stereo not shown) | 0.051
C=C[C@](C)(O)CC[C@@H]1[C@@]2(C)CCCC(C)(C)[C@@H]2CC[C@@]1(C)O | 0.100
C/C=C/CCCCCC [trans-2-nonene] | 0.100
C=CCCCCCCCCCC [Dodecene] | 0.055
CCCCCCCCCC(CCCCCCC)C(=O)O (stereo not shown) | 0.077
CCCCCCCCCCCCO | 0.000

Exam item: Fill in: ABS 600.0 nm of CCCCCCCCCCCCN is ___
Marked response: 0.000

====

Record form. Attribute: ABS 600.0 nm. Fill in for each entry.
System: C. tropicalis strain H5343
protocol summary: Toxicity tests of substrates (growth by absorbance at 600 nm, streak plates)
Type: cell-based
measurement parameters: substrate concentration 0.13%, 48 h, 30° C., dilution in YPD 1:100
Numbers only.

Below, each entry is followed by its recorded ABS 600.0 nm result.
compound | target desc | ABS 600.0 nm
CCCCCC#CCCCCC | C. tropicalis strain H5343 | 0.071
CCCCCCCCCCCCO | C. tropicalis strain H5343 | 0.004
C=C(C)[C@H]1CC=C(C)CC1 [R(+) limonene] | C. tropicalis strain H5343 | 0.007
CCCCCC/C=C/CCCCCC [trans-7-tetradecene] | C. tropicalis strain H5343 | 0.104

Items follow; give ABS 600.0 nm for each.
1. CCCCCCCC/C=C\CCCCCCCCO
2. C=CCCCCCCCCCC [Dodecene]
3. C=C(C)[C@@H]1CC=C(C)CC1 [S(−) limonene]
4. CCCCCCCCCC(CCCCCCC)C(=O)O (stereo not shown)
5. C=CCCCCCCCCCCCC

Marked response:
[0.115, 0.050, 0.002, 0.043, 0.097]

Exam item: Which value of ABS 600.0 nm has been reported for CCCCCCCCC(CO)CCCCCC (stereo not shown) in the records?
Marked response: 0.273

====

Test system: C. tropicalis
protocol summary: Toxicity tests of additional substrates (absorbance at 600 nm)
Type: cell-based
measurement parameters: substrate concentration 1.0%, 24 hours, added without solvent
Class definitions on Absorbance at 600 nm: I: < 2; II: ≥ 2 and < 10; III: ≥ 10

Use these answered entries as a reference point.
molecule | qualitative label
CCCC1CCCCC1 | I
CCCCCOCCCCC | I
C=CCCCCCCCCCCCCCCCC | III
C=COCCCCCCCCCCCC | II
CCCCCCCCC(CO)CCCCCC (stereo not drawn) | III

Exam item: Assign a category based on measured Absorbance at 600 nm for CCCCCCCCC(CCCCCC)C(=O)O (stereo not drawn) and give only the class name.
Marked response: III

Exam item: Next up: CCCCCCC(C)O (stereo not drawn)
Marked response: I

Exam item: Next record, please: CCCC[S+]([O-])CCCC [Butylsulfoxide, dibutylsulfoxide]
Marked response: II

====

Assign ABS 600.0 nm to each entry below.
Tested on: C. tropicalis strain H5343
protocol summary: Toxicity tests of substrates (growth by absorbance at 600 nm, streak plates)
Assay type: cell-based
measurement parameters: substrate concentration 0.0313%, 48 h, 30° C., dilution in YPD 1:100
Answers are plain numbers.

Reference set (3 entries):
compound | quantity kind | measured number
CCCCCCCC/C=C\CCCCCCCCO | ABS 600.0 nm | 0.087
CCCCCCCCC(=O)CCCCCCCC | ABS 600.0 nm | 0.120
CCCCCCCCC(CO)CCCCCC (stereo not drawn) | ABS 600.0 nm | 0.145

Value sought for every listed compound: ABS 600.0 nm.
1. C=C(C)[C@H]1CC=C(C)CC1 [R(+) limonene]
2. CCCCCC#CCCCCC

Marked response:
0.117
0.083

====

Test system: C. tropicalis strain H5343
protocol summary: Toxicity tests of substrates (growth by absorbance at 600 nm, streak plates)
Format: cell-based
measurement parameters: substrate concentration 1%, 48 h, 30° C., dilution in YPD 1:100
Marks after values point to notes of the source that are not given here.
quantity kind: ABS 600.0 nm

Return reported ABS 600.0 nm values for all items listed beneath this line.
1. CCCCCCCCCCCCO
2. CCCCCCCCC(=O)CCCCCCCC
3. CCCCCC(O)CCCCC

Marked response:
1. 0.267**
2. 0.004**
3. 0.000**
